experimentDescription: Induction of hemolysis in erythrocytes (unknown origin)
Format: cell-based, Erythrocyte
runParameters: read-out: HD50 (the source's name)
quantityKind: HC50 (µM)
Dear colleague, please return just the value in µM, with no unit written.

C[C@@H]1O[C@@H](O[C@H]2[C@H](O[C@H]3CC[C@@]4(C)[C@@H](CC[C@]5(C)[C@@H]4CC=C4[C@@H]6CC(C)(C)CC[C@]6(C(=O)O)CC[C@]45C)[C@]3(C)CO)OC[C@H](O[C@@H]3O[C@H](CO)[C@@H](O)[C@H](O)[C@H]3O)[C@@H]2O)[C@H](O)[C@H](O)[C@H]1O [HEDERACOLCHISIDE A] | 22

Ask: Returns the measured HC50 for the input compound. Input: C[C@@H]1O[C@@H](O[C@H]2[C@H](O[C@H]3CC[C@@]4(C)[C@@H](CC[C@]5(C)[C@@H]4CC=C4[C@@H]6CC(C)(C)CC[C@]6(C(=O)O)CC[C@]45C)[C@]3(C)CO)OC[C@H](O)[C@@H]2O)[C@H](O)[C@H](O)[C@H]1O
Result: 10
